# System: MALME-3M melanoma
# PROCEDURE_DETAILS: NCI-60 one-dose screen, 48 h (100 = growth as untreated, 0 = no growth, -100 = all killed)
# PARTICULARS: 10 µM unless noted
The panel holds about 83,000 compounds, 20% with a hit somewhere; the sample as a whole holds those more often.
OBSERVABLE: growth (%)
One number for each entry, in %.

Sample answers from the record:
>>> observed_measurement("COC(=O)[C@@H]1CCCN1C(=O)[C@@H]1CCCN1C(=O)[C@@H](Cc1c[nH]c2ccccc12)NC(=S)Nc1cc(C(F)(F)F)cc(C(F)(F)F)c1")
60.4
>>> observed_measurement("COc1cc(C(F)(F)F)ccc1-c1cc(-c2ccc(F)cc2)n[nH]1")
90.8
>>> observed_measurement("Cc1ccc(C2SCC(=O)N2NC(=O)c2[nH]c3ccc(F)cc3c2-c2ccccc2)cc1 (centres undefined)")
91.6

Here is the next item to consider.
Could you tell me which growth is on file for CCCCCCCC/C=C\CCCCCCCCOc1cccc(CC(=O)NCC[N+](C)(C)C)c1 ?
90.1

---

# Tested on: LOX IMVI melanoma
# PROCEDURE_DETAILS: NCI-60 one-dose screen, 48 h
# PARTICULARS: 10 µM unless noted
About 83,000 compounds went through this panel and 20% of them were active in at least one assay; those are over-represented in the sample as a whole. Calls of active or inactive are those of the source. The calls were made as follows: active = growth percent below 10; inactive = the rest.
Output constraint: value belongs to active, inactive

>>> category("Cc1c(C)n(CC(O)CNC2CCCCC2C)c2ccccc12 (configuration not stated)")
"active"
>>> category("CC1CCCCN1S(=O)(=O)c1ccc(CN=C=S)cc1 (configuration not stated)")
"active"
>>> category("O=C(COc1cccc(/C=C2\\COc3ccccc3C2=O)c1)c1ccccc1")
"inactive"
>>> category("O=C1/C(=C/c2ccc([N+](=O)[O-])cc2)Oc2ccc(O)cc21")
"inactive"
>>> category("O=c1[nH]c(=O)n(Cc2ccc(F)cc2)cc1F")
"inactive"
>>> category("COc1ccc(-c2nc(Nc3ccc(F)cc3)nc(Nc3ccc4c(c3)nc(C)n4Cc3ccccc3)n2)cc1")
"inactive"

Could you please tell me the result logged for Cc1ccc(S(=O)(=O)N2CCc3ccc(O)c4c3C2CCc2ccccc2-4)cc1 (configuration not stated) in this assay?
inactive

What call does the record list for CCC(=O)Nc1nnc(Cc2ccc(OC)c(OC)c2)s1 ?
inactive

Could you please tell me the result logged for Nc1c(Br)cc(Br)cc1-c1n[nH]c(=O)[nH]c1=O in this assay?
inactive

Would you mind telling me which call this test gave CN(C)c1ccc(/C=C(\C#N)c2cc3ccccc3n2C)cc1 ?
inactive

Per the assay record, what outcome was assigned to CN1CCN(C(=O)OCCOCCOC(=O)N2CCN(C)CC2)CC1 ?
inactive

Could you kindly confirm the outcome this assay logged for Cc1nc2cc(Nc3nc(Nc4ccc(F)cc4)nc(N4CCN(C)CC4)n3)ccc2n1Cc1ccccc1 ?
active

// param item: Cn1c2c(cc(S(=O)(=O)c3ccccc3)c1=O)CCc1c-2cnn1-c1cccc(Cl)c1 ; yields the recorded call
inactive

Hi team, can someone confirm the assay call for COc1ccc(Nc2[nH]n(C3=Nc4ccccc4Sc4ccccc43)c(=O)c2C#N)cc1 ?
inactive

---

# System: DU-145 prostate
# PROCEDURE_DETAILS: NCI-60 one-dose screen, 48 h (100 = growth as untreated, 0 = no growth, -100 = all killed)
# PARTICULARS: 10 µM unless noted
The panel holds about 83,000 compounds, 20% with a hit somewhere; the sample as a whole holds those more often.
OBSERVABLE: growth (%)
One number for each entry, in %.

Use these answered entries as a reference point.
>>> observed_measurement("COc1ccc2c(c1)c(=O)oc1c(C)c(OCC(C)=O)ccc12")
86.8
>>> observed_measurement("Clc1ccc2c(N3CCN(c4ccnc(NC5CCCCC5)n4)CC3)ccnc2c1")
62.4
>>> observed_measurement("Cn1c2ccccc2c2nn(Cc3ccccc3)c(=O)nc21")
113

Pending molecule:
Data request, read-out growth, for COC(=O)c1c2c(c(C)[n+]([O-])c1C)C(=O)C=C(NCc1ccc(F)c(Cl)c1)C2=O
-99

The reported numbers originate from PubChem BioAssay (NCI).
